Run Description: Antioxidant activity assessed as hydroxyl radical scavenging activity at 15 uM by ESR spin trapping assay
Assay type: physicochemical
List of Activity values.
Number in %, nothing else.

State the recorded Activity for this entry: CC[C@H](CC[C@@H](C)[C@H]1CC[C@H]2[C@@H]3CC=C4C[C@@H](OC(=O)/C=C/c5ccc(O)c(OC)c5)CC[C@]4(C)[C@H]3CC[C@]12C)C(C)C
43

Requested read-out: Activity. Entry: CCOC(=O)/C=C/c1ccc(O)c(OC)c1 [ETHYL FERULATE]
42

* * *

Run Description: Antioxidant activity assessed as superoxide anion radical scavenging activity at 160 uM measured as absorbance (t > infinity) recorded every min for 7 mins by nitroblue tetrazolium assay (reference value: 1.9 +/- 0.01)
Format: physicochemical
Attribute: Activity

In the examples that follow, each entry is paired with its recorded Activity.
CC[C@H](/C=C/[C@@H](C)[C@H]1CC[C@H]2[C@@H]3CC=C4C[C@@H](OC(=O)/C=C/c5ccc(O)c(OC)c5)CC[C@]4(C)[C@H]3CC[C@]12C)C(C)C ... 1.78
COc1cc(/C=C/C(=O)O[C@H]2CC[C@@]3(C)[C@@H](CC[C@@H]4[C@@H]3CC[C@]3(C)[C@@H]([C@H](C)CC[C@@H](C)C(C)C)CC[C@@H]43)C2)ccc1O ... 1.57
COc1cc(/C=C/C(=O)O[C@H]2CC[C@@]3(C)C(=CC[C@H]4[C@@H]5CC[C@H]([C@H](C)CC[C@@H](C)C(C)C)[C@@]5(C)CC[C@@H]43)C2)ccc1O ... 1.19

Name the recorded Activity for CC[C@H](CC[C@@H](C)[C@H]1CC[C@H]2[C@@H]3CC[C@H]4C[C@@H](OC(=O)/C=C/c5ccc(O)c(OC)c5)CC[C@]4(C)[C@H]3CC[C@]12C)C(C)C .
1.47

Item CCOC(=O)/C=C/c1ccc(O)c(OC)c1 [ETHYL FERULATE] has what recorded Activity?
1.6

# query: Activity of entry COc1cc(/C=C/C(=O)O)ccc1O [FERULATE]
1.03
